Target: UniProt:Q06187
Sequence (Q06187 whole entry): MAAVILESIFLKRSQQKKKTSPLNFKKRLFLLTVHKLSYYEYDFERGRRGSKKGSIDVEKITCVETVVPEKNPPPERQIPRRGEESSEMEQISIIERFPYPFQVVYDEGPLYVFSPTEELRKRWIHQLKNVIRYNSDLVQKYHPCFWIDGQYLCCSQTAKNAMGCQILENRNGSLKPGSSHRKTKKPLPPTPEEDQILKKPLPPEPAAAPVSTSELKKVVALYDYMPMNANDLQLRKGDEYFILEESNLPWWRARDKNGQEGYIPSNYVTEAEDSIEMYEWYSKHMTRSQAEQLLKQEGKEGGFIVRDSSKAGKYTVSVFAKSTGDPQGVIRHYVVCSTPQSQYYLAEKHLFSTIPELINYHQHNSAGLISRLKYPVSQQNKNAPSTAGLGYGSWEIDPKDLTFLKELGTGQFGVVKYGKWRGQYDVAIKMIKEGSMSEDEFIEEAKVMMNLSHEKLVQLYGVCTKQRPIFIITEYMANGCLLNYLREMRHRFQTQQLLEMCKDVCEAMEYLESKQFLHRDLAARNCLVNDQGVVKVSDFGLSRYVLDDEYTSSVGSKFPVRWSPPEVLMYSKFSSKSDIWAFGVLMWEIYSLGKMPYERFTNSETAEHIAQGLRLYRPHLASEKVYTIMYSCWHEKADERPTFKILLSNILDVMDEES
pIC50: −log10 of the molar value.
measurementKind: pIC50

C=CC(=O)Nc1cccc(-n2c(=O)n(C)c(=O)c3cnc(Nc4ccc(N5CCSCC5)cc4OC)nc32)c1 ... 6.09
C=CC(=O)Nc1cccc(-n2c(=O)n(C)c(=O)c3cnc(Nc4ccc(N5CCN(C(C)=O)CC5)cc4OC)nc32)c1 ... 6.14
C=CC(=O)Nc1cccc(-n2c(=O)n(C)c(=O)c3cnc(Nc4ccccc4OC)nc32)c1 ... 6.00

* * *

System: TMD8
Assay: Antiproliferative activity against human TMD8 cells assessed as reduction in cell viability incubated for 72 hrs by CCK-8 assay
Format: functional, cell-based
Conditions: TMD8, 72 h
measurementKind: pIC50
Interpret pIC50 as the negative base-10 log of the concentration measured in mol/L.

C=CC(=O)Nc1cccc(-n2c(=O)n(C(C)C)c(=O)c3cnc(Nc4ccc(N5CCN(C)CC5)c(OC)c4)nc32)c1 ... 6.09

For the next question, use this compound.
Assay TMD8, sample C=CC(=O)Nc1cccc(-n2c(=O)n(C(C)C)c(=O)c3cnc(Nc4ccc(N5CCN(C)CC5)c(C)c4)nc32)c1 , pIC50 read: 6.14
